Target or system: MAPK14 (human), Q16539 [p38(A157V) Mutant Enzyme Inhibition Assay]
Sequence (Q16539 whole entry, looked up, stated change not applied): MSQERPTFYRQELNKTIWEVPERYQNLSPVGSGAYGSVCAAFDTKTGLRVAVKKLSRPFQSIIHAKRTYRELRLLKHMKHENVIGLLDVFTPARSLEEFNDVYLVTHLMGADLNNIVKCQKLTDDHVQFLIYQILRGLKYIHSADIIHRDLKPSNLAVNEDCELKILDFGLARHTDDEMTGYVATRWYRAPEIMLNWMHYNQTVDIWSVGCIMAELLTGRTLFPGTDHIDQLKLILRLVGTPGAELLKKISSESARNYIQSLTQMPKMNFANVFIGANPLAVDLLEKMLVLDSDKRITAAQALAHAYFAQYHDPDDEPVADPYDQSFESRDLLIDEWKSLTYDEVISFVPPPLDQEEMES
Assay explanation: p38(A157V) Mutant Enzyme Inhibition Assay
Measured attribute: pIC50
FYI, pIC50 means -log10 of a concentration in mol per litre.

Bench note: what pIC50 did C[C@H](Nc1cc(-c2nc(C3CCCNC3)n(C)c2-c2cccc(C(F)(F)F)c2)ccn1)c1ccccc1 (some centres undefined) show?
7.89

Could you tell me which pIC50 is on file for C[S+]([O-])c1ccc(-c2cc(-c3ccc(F)c(F)c3)c(-c3ccncc3)[nH]2)cc1 (centres undefined) ?
6.35

Return reported pIC50; argument: C[S+]([O-])c1ccc(-c2cc(-c3ccc(F)cc3)c(-c3ccncc3)[nH]2)cc1 (centres undefined)
7.24
